- Tested on: Mycobacterium tuberculosis H37Rv
- TEST: Inhibition of QCR6 A317T mutant in Mycobacterium tuberculosis H37Rv harboring cyd deletion mutant assessed as reduction in bacterial growth relative to wild-type QCR6
READOUT: fold change (FC)

[Q] Report measured fold change (FC) on Mycobacterium tuberculosis H37Rv; entry: COc1ccc2nc(C)cc(OCC(=O)Nc3ccc4c(c3)OCO4)c2c1
[A] 32.9

###

- Test system: Mycobacterium tuberculosis H37Rv
- TEST: Inhibition of QCR4 A396T mutant in Mycobacterium tuberculosis H37Rv harboring cyd deletion mutant assessed as reduction in bacterial growth relative to wild-type QCR4
READOUT: fold change (FC)
Answer using only a numeral; do not append any unit.

[Q] Using the record for COc1ccc2nc(C)cc(OCC(=O)NCc3ccccc3)c2c1 , state its measured fold change (FC).
[A] 3.9

We next turn to a different compound, shown below.
[Q] Could you please provide reported fold change (FC) for COc1ccc2nc(C)cc(OCC(=O)Nc3ccccc3)c2c1 ? Thanks!
[A] 5

###

- Tested on: Mycobacterium tuberculosis H37Rv
- TEST: Inhibition of QCR5 M342I mutant in Mycobacterium tuberculosis H37Rv harboring cyd deletion mutant assessed as reduction in bacterial growth relative to wild-type QCR5
Recorded fold change (FC) values for a group of molecules are listed next.
Just the number.

[Q] Supply fold change (FC) value. Item: COc1ccc(NC(=O)COc2cc(C)nc3ccc(OC)cc23)cc1
[A] 3.1

Next, consider the following molecule.
[Q] Answer with reported fold change (FC) of COc1ccc2nc(C)cc(OCC(=O)Nc3ccc(C)cc3)c2c1
[A] 1

###

- Tested on: Mycobacterium tuberculosis H37Rv
- TEST: Inhibition of QCR6 A317T mutant in Mycobacterium tuberculosis H37Rv harboring cyd deletion mutant assessed as reduction in bacterial growth relative to wild-type QCR6
Measured fold change (FC) of individual entries
// return a plain number; no unit text

Known fold change (FC) results, listed for orientation:
[Q] Please tell me the measured fold change (FC) for c1ccc(Cn2cnc3c(-c4ccco4)nccc32)cc1 ; system: Mycobacterium tuberculosis H37Rv.
[A] 10.1

[Q] Write down the reported fold change (FC) (system: Mycobacterium tuberculosis H37Rv) of COc1ccc2nc(C)cc(OCC(=O)Nc3ccccc3OC)c2c1
[A] 24.5

[Q] Report measured fold change (FC) on Mycobacterium tuberculosis H37Rv; entry: COc1ccc2nc(C)cc(OCC(=O)NCc3ccccc3)c2c1
[A] 23.5

[Q] Jot down fold change (FC) (Mycobacterium tuberculosis H37Rv) of COc1ccc2nc(C)cc(OCC(=O)Nc3ccccc3)c2c1 .
[A] 30

[Q] Give measured fold change (FC) for COc1ccc(NC(=O)COc2cc(C)nc3ccc(OC)cc23)cc1 (Mycobacterium tuberculosis H37Rv).
[A] 24.5

Next:
[Q] Find the measured fold change (FC) of Nc1ccc(C(=O)O)c(O)c1 with Mycobacterium tuberculosis H37Rv as test system.
[A] 0.2

FYI, the data here is from ChEMBL document CHEMBL4190162.
